Values were extracted from paper PMC12467033.

Measured Kq accompanies every entry in the list below.
biological target: α-amylase (Sus scrofa, UniProt P00690); test: Fluorescence quenching, binding and thermodynamics with α-amylase; details: T 304 K
Sequence (P00690 16-511): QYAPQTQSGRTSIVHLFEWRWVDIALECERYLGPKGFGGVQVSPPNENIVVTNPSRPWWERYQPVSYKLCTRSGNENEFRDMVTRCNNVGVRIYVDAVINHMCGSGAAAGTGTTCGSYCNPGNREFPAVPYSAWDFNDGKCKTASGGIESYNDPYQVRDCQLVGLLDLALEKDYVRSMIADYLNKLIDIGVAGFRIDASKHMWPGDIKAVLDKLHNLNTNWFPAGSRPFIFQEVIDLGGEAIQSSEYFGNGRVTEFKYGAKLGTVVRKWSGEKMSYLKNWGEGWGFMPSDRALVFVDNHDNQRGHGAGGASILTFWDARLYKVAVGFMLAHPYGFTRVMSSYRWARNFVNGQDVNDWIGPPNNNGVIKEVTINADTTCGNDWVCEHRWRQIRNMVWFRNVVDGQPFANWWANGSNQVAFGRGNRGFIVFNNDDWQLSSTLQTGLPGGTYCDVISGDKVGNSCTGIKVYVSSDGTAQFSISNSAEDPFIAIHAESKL

{"CHEMICAL_STRING": "O=C(O)c1ccc(-c2c3nc(c(-c4ccc(C(=O)O)cc4)c4ccc([nH]4)c(-c4ccc(C(=O)O)cc4)c4nc(c(-c5ccc(C(=O)O)cc5)c5ccc2[nH]5)C=C4)C=C3)cc1", "Kq": "3.55 ± 0.08 ×10^12 L/mol/s"}
{"CHEMICAL_STRING": "O=C(O)c1ccc(-c2c3nc(c(-c4ccc(C(=O)O)cc4)c4ccc([nH]4)c(-c4ccc(C(=O)O)cc4)c4nc(c(-c5ccc(C(=O)O)cc5)c5ccc2[nH]5)C=C4)C=C3)cc1.[Cu+2]", "Kq": "4.33 ± 0.03 ×10^12 L/mol/s"}
{"CHEMICAL_STRING": "Nc1ccc(-c2c3nc(c(-c4ccc(N)cc4)c4ccc([nH]4)c(-c4ccc(N)cc4)c4nc(c(-c5ccc(N)cc5)c5ccc2[nH]5)C=C4)C=C3)cc1", "Kq": "3.37 ± 0.02 ×10^12 L/mol/s"}
{"CHEMICAL_STRING": "O=C(O)c1ccc(-c2c3nc(c(-c4ccc(C(=O)O)cc4)c4ccc([nH]4)c(-c4ccc(C(=O)O)cc4)c4nc(c(-c5ccc(C(=O)O)cc5)c5ccc2[nH]5)C=C4)C=C3)cc1.[Ni+2]", "Kq": "8.47 ± 0.07 ×10^12 L/mol/s"}
{"CHEMICAL_STRING": "Oc1ccc(-c2c3nc(c(-c4ccc(O)cc4)c4ccc([nH]4)c(-c4ccc(O)cc4)c4nc(c(-c5ccc(O)cc5)c5ccc2[nH]5)C=C4)C=C3)cc1", "Kq": "8.20 ± 0.02 ×10^12 L/mol/s"}

###

assay: MTT cytotoxicity assay; format: cell-based, human; settings: human, HepG2 cells, HepG2, 50–200 μg/mL, read-out: cell viability

{"COMPOUND": "Nc1ccc(-c2c3nc(c(-c4ccc(N)cc4)c4ccc([nH]4)c(-c4ccc(N)cc4)c4nc(c(-c5ccc(N)cc5)c5ccc2[nH]5)C=C4)C=C3)cc1 [TAPP]", "viability at 24 h": "> 97%"}

###

biological target: α-glucosidase (Saccharomyces cerevisiae, UniProt P53341); experiment: Fluorescence quenching, binding and thermodynamics with α-glucosidase; settings: T 298 K
Sequence (P53341 whole entry): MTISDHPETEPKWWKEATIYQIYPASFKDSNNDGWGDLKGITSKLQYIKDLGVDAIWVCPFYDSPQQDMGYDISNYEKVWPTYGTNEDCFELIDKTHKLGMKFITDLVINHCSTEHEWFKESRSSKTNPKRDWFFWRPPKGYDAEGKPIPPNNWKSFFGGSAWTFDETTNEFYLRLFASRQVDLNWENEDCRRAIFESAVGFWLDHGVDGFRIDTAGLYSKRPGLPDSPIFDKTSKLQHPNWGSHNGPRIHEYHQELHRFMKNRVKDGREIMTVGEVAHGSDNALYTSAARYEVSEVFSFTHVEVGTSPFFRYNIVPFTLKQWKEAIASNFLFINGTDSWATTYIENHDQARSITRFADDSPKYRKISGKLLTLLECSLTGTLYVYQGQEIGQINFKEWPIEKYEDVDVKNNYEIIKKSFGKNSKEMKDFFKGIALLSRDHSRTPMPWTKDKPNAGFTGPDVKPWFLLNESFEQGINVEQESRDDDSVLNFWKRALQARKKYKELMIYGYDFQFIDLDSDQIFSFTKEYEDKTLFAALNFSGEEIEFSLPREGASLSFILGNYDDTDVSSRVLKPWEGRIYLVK

{"CHEMICAL_STRING": "O=C(O)c1ccc(-c2c3nc(c(-c4ccc(C(=O)O)cc4)c4ccc([nH]4)c(-c4ccc(C(=O)O)cc4)c4nc(c(-c5ccc(C(=O)O)cc5)c5ccc2[nH]5)C=C4)C=C3)cc1.[Cu+2]", "Ksv": "7.35 ± 0.09 ×10^4 L/mol"}
{"CHEMICAL_STRING": "Oc1ccc(-c2c3nc(c(-c4ccc(O)cc4)c4ccc([nH]4)c(-c4ccc(O)cc4)c4nc(c(-c5ccc(O)cc5)c5ccc2[nH]5)C=C4)C=C3)cc1", "Ksv": "7.40 ± 0.06 ×10^4 L/mol"}
{"CHEMICAL_STRING": "Nc1ccc(-c2c3nc(c(-c4ccc(N)cc4)c4ccc([nH]4)c(-c4ccc(N)cc4)c4nc(c(-c5ccc(N)cc5)c5ccc2[nH]5)C=C4)C=C3)cc1", "Ksv": "6.25 ± 0.04 ×10^4 L/mol"}
{"CHEMICAL_STRING": "O=C(O)c1ccc(-c2c3nc(c(-c4ccc(C(=O)O)cc4)c4ccc([nH]4)c(-c4ccc(C(=O)O)cc4)c4nc(c(-c5ccc(C(=O)O)cc5)c5ccc2[nH]5)C=C4)C=C3)cc1", "Ksv": "7.45 ± 0.04 ×10^4 L/mol"}
{"CHEMICAL_STRING": "O=C(O)c1ccc(-c2c3nc(c(-c4ccc(C(=O)O)cc4)c4ccc([nH]4)c(-c4ccc(C(=O)O)cc4)c4nc(c(-c5ccc(C(=O)O)cc5)c5ccc2[nH]5)C=C4)C=C3)cc1.[Ni+2]", "Ksv": "17.73 ± 0.15 ×10^4 L/mol"}
